Each recorded value in this set is attributed to patent US8580857B2.

# testDetails: clinical
# Assay type: in vivo, human
# condition: male, human, in vivo, Alpha half-life
endpointLabel: half-life (h)
Form entry: value (h) — number only.

Ask: Supply recorded half-life for Cc1ccc(C(=O)Nc2ccc(S(=O)(=O)O)c3cc(S(=O)(=O)O)cc(S(=O)(=O)O)c23)cc1NC(=O)c1cccc(NC(=O)Nc2cccc(C(=O)Nc3cc(C(=O)Nc4ccc(S(=O)(=O)O)c5cc(S(=O)(=O)O)cc(S(=O)(=O)O)c45)ccc3C)c2)c1 [suramin] here.
Reply: 4.3

###

# testDetails: Prospective verification of the PBPK-based dosing method, plasma concentrations
# Assay type: in vivo, human
# condition: human, plasma, intravenous; Patient 2, cycle 1, BSA 1.67, dose 210 mg; read-out: Concentration, 48 hours
endpointLabel: concentration at 48 h

Ask: Supply recorded concentration at 48 h for Cc1ccc(C(=O)Nc2ccc(S(=O)(=O)O)c3cc(S(=O)(=O)O)cc(S(=O)(=O)O)c23)cc1NC(=O)c1cccc(NC(=O)Nc2cccc(C(=O)Nc3cc(C(=O)Nc4ccc(S(=O)(=O)O)c5cc(S(=O)(=O)O)cc(S(=O)(=O)O)c45)ccc3C)c2)c1 here.
Reply: 15.5 µM
